Answer each item with its documented Dmax.
# measured target: ER in MCF-7 cells (Homo sapiens (Human), UniProt P03372)
# Sequence (P03372 whole entry): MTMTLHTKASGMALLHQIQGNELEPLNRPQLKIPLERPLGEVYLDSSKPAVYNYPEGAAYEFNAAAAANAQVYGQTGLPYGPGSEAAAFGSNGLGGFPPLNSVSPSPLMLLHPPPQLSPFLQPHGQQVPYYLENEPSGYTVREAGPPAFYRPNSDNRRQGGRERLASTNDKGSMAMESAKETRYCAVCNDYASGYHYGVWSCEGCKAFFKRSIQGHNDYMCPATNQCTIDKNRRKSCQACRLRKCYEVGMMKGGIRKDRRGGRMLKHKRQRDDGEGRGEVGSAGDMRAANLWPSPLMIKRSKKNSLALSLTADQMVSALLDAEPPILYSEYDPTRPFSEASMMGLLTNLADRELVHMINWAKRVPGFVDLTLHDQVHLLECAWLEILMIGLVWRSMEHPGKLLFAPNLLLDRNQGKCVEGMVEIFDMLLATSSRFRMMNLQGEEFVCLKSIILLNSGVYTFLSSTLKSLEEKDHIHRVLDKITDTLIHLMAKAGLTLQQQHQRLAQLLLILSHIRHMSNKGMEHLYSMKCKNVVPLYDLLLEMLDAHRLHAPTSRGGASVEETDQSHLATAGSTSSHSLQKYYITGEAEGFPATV
# protocol description: In-cell Western (ICW) ER degradation assay in MCF-7 cells
# Assay type: cell-based
# assay conditions: MCF7, read-out: MCF7 Dmax, MCF-7, maximal ER degradation, 16 hrs treatment
# Source text: In-cell Western (ICW) assays in MCF-7 and T47D cell lines. Day 3: After 16 hrs of compounds treatment, cells were fixed by 4% PFA and permeabilized with elution buffer (0.1% Triton X-100 in 1% PBS Solution). Subsequently, cells were blocked with Intercept (PBS) Blocking Buffer (Li-COR, Odyssey Blocking Buffer), and were stained with ER (1:500, Cell signaling) primary antibody for overnight at cold room. […]

Below, 3 compounds whose answers are already recorded.
>  <compound>
O=C1CC[C@H](N2Cc3cc4c(cc3C2=O)OCC42CCN(CC3CCC4(CC3)CN(c3ccc([C@@H]5c6ccc(O)cc6CC[C@@H]5c5ccccc5)cc3)C4)CC2)C(=O)N1

>  <measured target>
ER in MCF-7 cells (Homo sapiens (Human), UniProt P03372)

>  <result value>
> 75%

$$$$
>  <compound>
COc1cc(N2CCC(CCN3CCC4(CC3)COc3c4ccc4c3CN([C@H]3CCC(=O)NC3=O)C4=O)CC2)c(F)cc1[C@@H]1c2ccc(O)cc2CC[C@@H]1c1ccccc1

>  <measured target>
ER in MCF-7 cells (Homo sapiens (Human), UniProt P03372)

>  <result value>
> 75%

$$$$
>  <compound>
O=C1CC[C@H](N2Cc3c(ccc4c3OCC43CCN(CC4CC5(CCN(c6ccc([C@@H]7c8ccc(O)cc8CC[C@@H]7c7ccccc7)cc6F)CC5)C4)CC3)C2=O)C(=O)N1

>  <measured target>
ER in MCF-7 cells (Homo sapiens (Human), UniProt P03372)

>  <result value>
25 to 50%

$$$$

Fill in Dmax for each of the 2 compounds listed.
1. COc1cc(N2CCC(CN3CCN4c5cc6c(cc5OC[C@H]4C3)C(=O)N([C@@H]3CCC(=O)NC3=O)C6)CC2)ccc1[C@H]1c2ccc(O)cc2CC[C@H]1c1ccccc1 (stereo in doubt)
2. COc1cc(N2CCC3(CC2)CC(CN2CCC4(CC2)COc2cc5c(cc24)CN([C@H]2CCC(=O)NC2=O)C5=O)C3)c(F)cc1[C@@H]1c2ccc(O)cc2CC[C@@H]1c1ccccc1

["> 75%", "> 75%"]

Fill in Dmax for each of the 5 compounds listed.
1. O=C1CC[C@H](N2Cc3c(ccc4c3OCC43CCN(CC4CC5(CCN(c6ccc([C@H]7c8ccc(O)cc8CC[C@H]7c7ccccc7)cc6F)CC5)C4)CC3)C2=O)C(=O)N1
2. O=C1CC[C@H](N2Cc3cc4c(cc3C2=O)OCC42CCN(C[C@@H]3COC4(CCN(c5ccc([C@H]6c7ccc(O)cc7CC[C@H]6c6ccccc6)cc5)CC4)C3)CC2)C(=O)N1
3. COc1cc(N2CCC(CN3CC[C@@]4(c5ccc(N[C@H]6CCC(=O)NC6=O)cc5)C(C3)C4(F)F)CC2)ccc1[C@@H]1c2ccc(O)cc2CC[C@@H]1c1ccccc1 (stereo partly shown)
4. COc1cc(N2CCC(CCN3CCC4(CC3)COc3c4cc(OC)c4c3CN([C@H]3CCC(=O)NC3=O)C4=O)CC2)c(F)cc1[C@@H]1c2ccc(O)cc2CC[C@@H]1c1ccccc1
5. COc1cc(N2CCC(CN3CCC4(CC3)COc3cc5c(cc34)CN([C@H]3CCC(=O)NC3=O)C5=O)CC2)ccc1[C@H]1c2ccc(O)cc2CC[C@H]1c1ccccc1

1. 50 to 75%
2. > 75%
3. 25 to 50%
4. > 75%
5. 25 to 50%
